System: HPAC cells
TEST: HPAC 3D proliferation assay (CellTiter-Glo)
Type: cell-based
EXPERIMENTAL_SETUP: Homo sapiens, 168 h, 3D culture, 7 days, read-out: HPAC CTG IC50
Quick list: pIC50 per entry.
Keep it numeric: pIC50 is minus log10 of the concentration in mol/L.

>  <COMPOUND>
Cc1cc(N)cc(-c2nc3c4c(nc(OC[C@@]56CCCN5C[C@H](F)C6)nc4c2F)N([C@H](C)c2cccnc2N)CCO3)c1C(F)(F)F [Example 3]

>  <TESTED_ON>
HPAC cells

>  <REPORTED>
8.06

$$$$
>  <COMPOUND>
Cc1cc(N)nc(-c2nc3c4c(nc(OC[C@@]56CCCN5C[C@H](F)C6)nc4c2F)N([C@H](C)c2cccnc2N)CCO3)c1C(F)(F)F [Example 6]

>  <TESTED_ON>
HPAC cells

>  <REPORTED>
7.36

$$$$

Give HPAC cells pIC50 for Cc1c(F)c(N)nc(-c2nc3c4c(nc(OC[C@@]56CCCN5C[C@H](F)C6)nc4c2F)N([C@H](C)c2cncnc2N)CCO3)c1C(F)(F)F [Example 613]
5.82

---

Quick list: pIC50 per entry.
Test system: H1975 cells
TEST: H1975 CTG proliferation assay
Type: cell-based
EXPERIMENTAL_SETUP: Homo sapiens, NCI-H1975, H1975, CTG
Keep it numeric: pIC50 is minus log10 of the concentration in mol/L.

>  <COMPOUND>
Cc1c(F)c(N)cc(-c2nc3c4c(nc(OC[C@@]56CCCN5C[C@H](F)C6)nc4c2Cl)N([C@H](C)c2cccnc2N)CCO3)c1C(F)(F)F [Example 32]

>  <TESTED_ON>
H1975 cells

>  <REPORTED>
8.15

$$$$

If you can, please state the reported pIC50 value of Cc1c(F)c(N)nc(-c2nc3c4c(nc(OC[C@@]56CCCN5C[C@H](F)C6)nc4c2F)N([C@H](C)c2cccnc2N)CCO3)c1C(F)(F)F [Example 604] .
6.55

If you can, please state the reported pIC50 value of Cc1c(F)c(N)cc(-c2nc3c4c(nc(OC[C@@H]5CC(F)(F)CN5C)nc4c2F)N([C@H](C)c2cccnc2N)CCO3)c1C(F)(F)F [Example 20] .
6.38

If you can, please state the reported pIC50 value of Cc1c(F)c(N)c(F)c(-c2nc3c4c(nc(OC[C@@]56CCCN5C[C@H](F)C6)nc4c2F)N([C@H](C)c2nccnc2N)CCO3)c1C(F)(F)F [Example 13] .
7.13

If you can, please state the reported pIC50 value of C[C@H](c1cccnc1N)N1CCOc2nc(-c3cccc4sc(N)nc34)c(F)c3nc(OC[C@@]45CCCN4C[C@H](F)C5)nc1c23 [Example 24] .
5.29

If you can, please state the reported pIC50 value of C[C@H](c1cccnc1N)N1CCOc2nc(-c3cc(O)cc4cccc(F)c34)c(F)c3nc(OC[C@@]45CCCN4C[C@H](F)C5)nc1c23 [Example 25] .
7.08

If you can, please state the reported pIC50 value of Cc1cc(N)nc(-c2nc3c4c(nc(OC[C@@]56CCCN5C[C@H](F)C6)nc4c2F)N([C@H](C)c2cccnc2N)CCO3)c1C(F)(F)F [Example 6] .
8.14

If you can, please state the reported pIC50 value of Cc1c(F)c(N)nc(-c2nc3c4c(nc(OC[C@@]56CCCN5C[C@H](F)C6)nc4c2F)N([C@H](C)c2nccnc2N)CCO3)c1C(F)(F)F [Example 630] .
6.87

If you can, please state the reported pIC50 value of C[C@H](c1cccnc1N)N1CCOc2nc(-c3cc(N)ncc3C(F)(F)F)c(F)c3nc(OC[C@@]45CCCN4C[C@H](F)C5)nc1c23 [Example 608] .
6.61

If you can, please state the reported pIC50 value of C[C@H](c1cccnc1N)N1CCOc2nc(-c3c(C(F)(F)F)ccc(N)c3Cl)c(F)c3nc(OC[C@@]45CCCN4C[C@H](F)C5)nc1c23 (single isomer, unassigned) [Example 622b] .
5.58

If you can, please state the reported pIC50 value of Cc1nc(N)c(Cl)c(-c2nc3c4c(nc(OC[C@@]56CCCN5C[C@H](F)C6)nc4c2F)N([C@H](C)c2cccnc2N)CCO3)c1C(F)(F)F (single isomer, unassigned) [Example 601a] .
7.32

If you can, please state the reported pIC50 value of Cc1cc(N)c(F)c(-c2nc3c4c(nc(OC[C@@]56CCCN5C[C@H](F)C6)nc4c2F)N([C@H](C)c2nccnc2N)CCO3)c1C(F)(F)F [Example 23] .
7.49

If you can, please state the reported pIC50 value of Cc1cc(N)c(F)c(-c2nc3c4c(nc(OC[C@@H]5CC[C@H]6COCCN65)nc4c2F)N([C@H](C)c2cccnc2N)CCO3)c1C(F)(F)F [Example 22] .
7.31

If you can, please state the reported pIC50 value of Cc1c(F)c(N)c(F)c(-c2nc3c4c(nc(OC[C@@]56CCCN5C[C@H](F)C6)nc4c2F)N([C@H](C)c2cccnc2N)CCO3)c1C(F)(F)F [Example 12] .
7.23
